Values were extracted from ChEMBL document CHEMBL3108754.

# Test system: HEK293
# test protocol: Cytotoxicity against HEK293 cells
# Format: cell-based
# settings: Homo sapiens
outcome measure: pIC50
Keep it numeric: pIC50 is minus log10 of the concentration in mol/L.

Ask: Please look at this compound and report its pIC50: Cc1ccc(S(=O)(=O)/C=C/C#N)cc1
Reply: 5.42

Ask: Give reported pIC50 value for C/C=C(\C)C(=O)O[C@H]1[C@H](O)[C@@H](C(=O)OC)O[C@@H]2C[C@H]3O[C@@H](n4cnc5c(N)ncnc54)[C@H](OC)[C@H]3O[C@]21O
Reply: 5.64

Ask: For C/C=C(\CO)C(=O)O[C@H]1[C@H](O)[C@@H](C(=O)OC)O[C@@H]2C[C@H]3O[C@@H](n4cnc5c(N)ncnc54)[C@H](OC)[C@H]3O[C@]21O , write its pIC50.
Reply: 5.57
